The measurements presented in this section are drawn from the nanobody polyreactivity screen of Harvey et al. (2022).

assay: yeast display, Sf9 membrane polyspecificity reagent, FACS + sequencing; frameworks hold sequencing errors
MEASUREMENT NAME: polyreactivity (PSR sort gate)

Examples from the recorded data:
Data request, read-out polyreactivity (PSR sort gate), for QVQLVESGGGLVQAGGSLRLSCAASGRIFLGNAMGWYRQAPGKERELVDAITYSGRSTYYADSVKGRFTISRDNAKNTVYLQMNSLKPEDTAVYYCAARQYWTTDLPFQRYYYWGQGTHVTVSS
low polyreactivity

For QVHLVESGGGLVQAGGSLRLSCAASGRTFYSYVMGWYRQAPGKERELVAAISSTGGTYADSVKGRFTISRDNAKNTVYLQINSLKPEETAVYYCAAATPTGYKRGGYWGQGTQVTVSS then?
low polyreactivity

Moving on to QFQLVESGGGLDQAGGSLRLTCAASGLTIRWYAMGWYRQAPGKERELVAAIRWSGGSTYYADSVKGRFTISRDNAKNTVYLQMNSLKPEDTALYYCAARFLGYQSGTERDYWGQGTQVTVSS
high polyreactivity

Let us now turn to QVQLVESGGGLVQAGGSLRLSCAASGSTLERNAMGWYRQAPGKERELVAAITSSTGSTYYADSVKGRFTISRDNAKNTVYLQMNSLKPEDTAVYYFAKRVASVQSNRHDYWGQGTQVTVSS
high polyreactivity

Others:
Fill blank: measured polyreactivity (PSR sort gate) of the sequence QVQLVESGRGLVQAGGSLRLSCAASGRIFYYYAMGWYRKAPRKERELVAANTETGGNTYYADSVKGRFTISRDNAKNTVYLQMNSLKPEDTAVYYCARKGRRTHHYGLYSSSVYYWGQGTQVTVSS is ____.
low polyreactivity
